# System: isolated rat brain microsomes
# assay comment: Neurotoxicity: MDA production in brain microsomes, substances applied alone
# Format: cell-based
# measurement setup: 50 µM applied alone, compared to control
Label criterion met when increase of MDA production is strictly below 50%; otherwise label criterion not met.

# count of solved cases: 6
>>> print(df.to_string())
                           structure_string              label
0  CCOC(=O)c1cc(-c2ccc(Br)cc2)n(CCC(=O)NN=Cc2ccc(N(C)C)cc2)c1C  criterion not met
1  CCOC(=O)c1cc(-c2ccc(Br)cc2)n(CC(=O)NN=Cc2cc(OC)c(O)c(OC)c2)c1C      criterion met
2  CCOC(=O)c1cc(-c2ccc(Br)cc2)n(CC(=O)NN=Cc2ccc(N(C)C)cc2)c1C  criterion not met
3  CCOC(=O)c1cc(-c2ccc(Br)cc2)n(CCC(=O)NN=Cc2ccc(OC)cc2OC)c1C  criterion not met
4  CCOC(=O)c1cc(-c2ccc(Br)cc2)n(CCC(=O)NN=Cc2cc(OC)c(O)c(OC)c2)c1C      criterion met
5  CCOC(=O)c1cc(-c2ccc(Br)cc2)n(CCC(=O)NN=Cc2ccc([N+](=O)[O-])cc2)c1C  criterion not met

I wonder whether CCOC(=O)c1cc(-c2ccc(Br)cc2)n(CC(=O)NN=Cc2ccc(Cl)cc2)c1C has increase of MDA production below 50%. Can you tell? criterion met

I wonder whether CCOC(=O)c1cc(-c2ccc(Br)cc2)n(CC(=O)NN=Cc2ccc(OC)cc2OC)c1C has increase of MDA production below 50%. Can you tell? criterion not met
